Molecular target: Mouse CD3εδ Fc heterodimer (mouse) (UniProt P22646)
Experiment: BLI (Octet), IgG avidity, pH 7.4
quantity.name: Kd (nM)
Kindly answer with a numeric value in nM, unit omitted.

Input Antibody No. A002 (ADI-50024) IgG1 (antibody, V domains shown) VH: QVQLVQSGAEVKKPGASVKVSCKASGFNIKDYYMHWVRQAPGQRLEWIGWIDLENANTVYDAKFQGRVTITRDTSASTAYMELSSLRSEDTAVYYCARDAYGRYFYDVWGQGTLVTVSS VL: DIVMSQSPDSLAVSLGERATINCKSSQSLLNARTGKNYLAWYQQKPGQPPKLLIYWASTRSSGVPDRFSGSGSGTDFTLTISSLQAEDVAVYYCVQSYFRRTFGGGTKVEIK , output reported Kd.
91
